Values from patent US20050003383A1

- System: linoleate isomerase from Clostridium sporogenes
- assay-name: C. sporogenes linoleate isomerase kinetic assay, absorbence at 234 nm, partially purified enzyme
- Assay type: biochemical
- condition-info: compound added at 35 μM; substrate LA 35 μM; pH 7.5; LA alone = 100%
- Experimental: In this experiment, all kinetic experiments were performed in a quartz cuvette (1-cm light-path with a magnetic stirrer) at room temperature using a HP 8452A diode array spectrophotometer. The cuvette was filled with 1 ml of incubation buffer containing 50 μg protein, 0.1 M potassium phosphate, pH7.5, 10 mM NaCl and 10% 1,2-propane diol. […] The increase in absorbence at 234 nm was monitored and recorded. […] The amount of product formed was calculated based on a molar extinction coefficient of 24,000.
Think of 20% as a floor: if RELATIVE ACTIVITY % stands on it or above, it is satisfied; beneath it, not satisfied.

Here are 3 compounds together with their reported answers.
CCCCCCCCCCCCCCCCCC(=O)O
satisfied
CCCCC/C=C\C/C=C\CCCCCCCCCC(=O)O [(cis, cis)-11, 14 eicosadienoic acid]
not satisfied
CCCCCCCC/C=C\CCCCCCCC(=O)O [oleic acid, (cis)-9 octadecenoic acid]
satisfied

Next, consider the following compound.
-- ask Say whether CCCCC/C=C/C/C=C/CCCCCCCC(=O)O shows RELATIVE ACTIVITY % of 20% or more.
-- reply not satisfied
